assay-protocol: Compound was tested for inhibition of Angiotensin II receptor in rabbit aorta binding assay
readout: IC50 (nM)

CCc1nc2c(C)cc(C)nc2n1Cc1ccc(-c2cscc2-c2nn[nH]n2)cc1
2.4

I = CCc1nc2c(C)cc(C)nc2n1Cc1ccc(-c2ccsc2-c2nn[nH]n2)cc1
II = CCc1nc2c(C)cc(C)nc2n1Cc1ccc(-c2ccccc2-c2nn[nH]n2)s1
III = CCc1nc2c(C)cc(C)nc2n1Cc1ccc(-c2ccoc2-c2nn[nH]n2)cc1
Query string: Rank ascending by IC50. The reply should contain the labels ordered as requested.
Result string: I, III, II
(I: 2.3 nM, III: 23 nM, II: 1000 nM)
